Experiment: Cytotoxicity in PBMCs by MTS (secondary cytotoxicity assay, high-test concentration 25 μM)
Type: cell-based
Conditions: human PBMCs, MTS cell viability; modified peptides conjugated with HSA; FB005, FB006 unmodified; read-out: TC50 (50% cytotoxicity drug concentration)
Method: For the standard PBMC assay, PHA-P stimulated cells from at least two normal donors were pooled, diluted in fresh medium to a final concentration of 1×10^6 cells/mL, and plated in the interior wells of a 96 well round bottom microplate at 50 μL/well (5×10^4 cells/well). […] Following removal of supernatant samples, compound cytotoxicity was measured by addition of MTS to the plates for determination of cell viability. […]
measurement_name: CC50 at 7 days (µM)
Report the figure in µM without appending any unit label.

What value of CC50 at 7 days has been recorded for this entry: Ac-SLEQIWNNMTWEEWDREINNYTELIHELIEESQNQQEKNEQELL-NH2 [FB005]
14.3

What value of CC50 at 7 days has been recorded for this entry: Ac-WEEWDREINNYTKLIHELIEESQNQQEKNEQELL-NH2 [FB006]
15.9

Source of measurements: patent US8470527B2
